Target: human mAChR M4 (Homo sapiens, UniProt P08173)
Construct: expressed in transfected cells; host or cells: CHO-K1 (ATCC), stably co-expressing chimeric G protein Gqi5
Sequence (P08173 1-479): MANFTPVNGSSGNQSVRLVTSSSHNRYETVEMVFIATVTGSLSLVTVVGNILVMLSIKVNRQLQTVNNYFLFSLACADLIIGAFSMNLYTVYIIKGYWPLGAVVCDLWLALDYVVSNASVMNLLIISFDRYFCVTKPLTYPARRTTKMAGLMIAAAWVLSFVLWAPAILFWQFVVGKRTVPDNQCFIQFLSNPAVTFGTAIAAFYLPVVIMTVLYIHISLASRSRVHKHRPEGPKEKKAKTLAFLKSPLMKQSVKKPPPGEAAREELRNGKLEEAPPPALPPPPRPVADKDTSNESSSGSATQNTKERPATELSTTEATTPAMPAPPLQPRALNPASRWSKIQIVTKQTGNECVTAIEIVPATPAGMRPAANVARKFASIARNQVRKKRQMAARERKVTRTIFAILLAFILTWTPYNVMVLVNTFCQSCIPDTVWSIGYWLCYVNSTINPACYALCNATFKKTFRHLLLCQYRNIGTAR
Experiment: mAChR M4 cell-based functional assay (calcium mobilization, EC80 acetylcholine), human M4
Settings: Table 10
Lab note: compare Human M4 Emin against 5%. Equal or greater, write TRUE. Smaller, write FALSE.

[Q] Check the entry `CC(C)(C)CCN1C[C@H]2C[C@H](Oc3ccc(-c4ccc(C(F)(F)F)cc4)nn3)C[C@H]2C1` : does Human M4 Emin equal or exceed 5%?
[A] FALSE

[Q] Check the entry `Cc1ccc(F)cc1-c1ccc(N[C@H]2C[C@@H]3CN(CC4CCOCC4)C[C@@H]3C2)nn1` : does Human M4 Emin equal or exceed 5%?
[A] FALSE

[Q] Check the entry `CCn1ccc(-c2ccc(N[C@H]3C[C@@H]4CN(CC5CCOCC5)C[C@@H]4C3)nn2)n1` : does Human M4 Emin equal or exceed 5%?
[A] TRUE

[Q] Check the entry `COc1ccc(CN2C[C@H]3C[C@H](Nc4ccc(-c5cc(F)ccc5Cl)nn4)C[C@H]3C2)cc1` : does Human M4 Emin equal or exceed 5%?
[A] FALSE

[Q] Check the entry `Fc1ccc(Cl)c(-c2ccc(N[C@H]3C[C@@H]4CN(Cc5ccccn5)C[C@@H]4C3)nn2)c1` : does Human M4 Emin equal or exceed 5%?
[A] FALSE

[Q] Check the entry CC1(C)CC(CN2C[C@H]3C[C@H](Nc4ccc(-c5cc(F)ccc5Cl)nn4)C[C@H]3C2)CCO1 (stereo partly drawn) : does Human M4 Emin equal or exceed 5%?
[A] FALSE

====

Molecular target: human mAChR M4 (Homo sapiens)
Construct: expressed in transfected cells; host or cells: CHO-K1 (ATCC), stably co-expressing chimeric G protein Gqi5
Sequence (P08173 1-479): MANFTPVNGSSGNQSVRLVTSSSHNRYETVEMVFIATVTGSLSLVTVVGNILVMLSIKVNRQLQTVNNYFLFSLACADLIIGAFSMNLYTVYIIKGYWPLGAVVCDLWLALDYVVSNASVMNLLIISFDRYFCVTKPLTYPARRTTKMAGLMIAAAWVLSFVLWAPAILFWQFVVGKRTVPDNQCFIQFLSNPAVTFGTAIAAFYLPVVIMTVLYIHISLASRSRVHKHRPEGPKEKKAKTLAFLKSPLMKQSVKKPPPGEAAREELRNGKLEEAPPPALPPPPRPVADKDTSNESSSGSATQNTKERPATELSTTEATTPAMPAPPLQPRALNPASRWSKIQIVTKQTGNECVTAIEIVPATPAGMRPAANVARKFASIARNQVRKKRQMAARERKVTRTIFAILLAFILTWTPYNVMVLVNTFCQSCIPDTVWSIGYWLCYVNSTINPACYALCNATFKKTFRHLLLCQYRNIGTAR
Experiment: mAChR M4 cell-based functional assay (calcium mobilization, EC80 acetylcholine), human M4
Conditions: Table 9; human M4; % ACh maximum at 30 μM
Lab note: compare Emin against 4%. Equal or greater, write Met. Smaller, write Not met.

[Q] Check the entry Cc1cnn(C)c1-c1ccc(NCCC2C[C@@H]3CN(CC4CC5C=CC4C5)C[C@@H]3C2)nn1 (some centres unmarked) : does Emin equal or exceed 4%?
[A] Not met

[Q] Check the entry Cc1nn(C)cc1-c1ccc(N[C@H]2C[C@@H]3CN(CC4CC5C=CC4C5)C[C@@H]3C2)nn1 (some centres unmarked) : does Emin equal or exceed 4%?
[A] Not met

[Q] Check the entry `Cc1cccnc1CN1C[C@H]2C[C@H](Nc3ccc(-c4cc(F)ccc4Cl)nn3)C[C@H]2C1` : does Emin equal or exceed 4%?
[A] Met

[Q] Check the entry `Cc1cnn(C)c1-c1ccc(NC[C@H]2C[C@@H]3CN(CCC(C)(C)C)C[C@@H]3C2)nn1` : does Emin equal or exceed 4%?
[A] Not met

[Q] Check the entry CCCC(C)CN1C[C@H]2CC(COc3ccc(-c4cn(C)nc4C)nn3)C[C@H]2C1 (some centres unmarked) : does Emin equal or exceed 4%?
[A] Met

[Q] Check the entry Cc1cnn(C)c1-c1ccc(NCCC2C[C@@H]3CN(CC4CCCOC4)C[C@@H]3C2)nn1 (some centres unmarked) : does Emin equal or exceed 4%?
[A] Met
